B1: Pistol ribozyme (parent)
chain: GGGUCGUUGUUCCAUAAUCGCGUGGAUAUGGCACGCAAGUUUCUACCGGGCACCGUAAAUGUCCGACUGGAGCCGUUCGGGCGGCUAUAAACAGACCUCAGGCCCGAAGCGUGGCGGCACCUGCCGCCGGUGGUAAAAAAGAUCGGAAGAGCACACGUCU

- Variants of: B1
- Measurement Notes: aptazyme ON/OFF ratio, guanine; higher = stronger switching; co-transcriptional cleavage with and without guanine
Listing: aptazyme ON/OFF ratio of selected variants
Field format: numeric only.

Example entries and their recorded answers appear below.
Sequence Change | aptazyme ON/OFF ratio
U7G U8G U10A U11C C12U | 1.42
U7C U8C U10G U11C C12A C13A | 1.16
U7G U8C G9A C12G C13U | 1.03
U7A U8C G9U U10G U11A C12U C13G | 1.09

stdin: # input variant: U7G U8G G9U U10C U11C C12U C13G ; wanted: its aptazyme ON/OFF ratio
stdout: 1.41

stdin: One more variant: U7C U8C G9C U10C U11G C13U
stdout: 1.21

stdin: One more variant: U7G U8A G9C U10C C13U
stdout: 1.04

stdin: One more variant: U7C U8C G9C U11A C12A C13U
stdout: 1.13

stdin: One more variant: U7G U8C G9U U10G C12A
stdout: 1.58

stdin: One more variant: U7C G9C U10G U11A C12U C13U
stdout: 1.15
